# method: PAMPA-GIT
# experimental.parameters: PAMPA
attribute.measured: Papp at 8 h, 500 μM (×10⁻⁶ cm/s)
Note: unit ×10⁻⁶ cm/s is implicit; provide only the numeric part.

Query string: Fill in: Papp at 8 h, 500 μM of O=c1ccc2ccccc2o1 is ___
Result string: 27.9

From here, focus on the item given below.
Query string: Fill in: Papp at 8 h, 500 μM of O=C(O)Cc1ccccc1Nc1c(Cl)cccc1Cl is ___
Result string: 14
